test-target: integrin α4β1 (Homo sapiens, UniProt P05556+P13612)
Construct: cell strain Jurkat (ATCC TIB-152) of human T cells, known to express integrin α4β1; host or cells: Jurkat (human T cell line)
Sequence (P13612 34-1032): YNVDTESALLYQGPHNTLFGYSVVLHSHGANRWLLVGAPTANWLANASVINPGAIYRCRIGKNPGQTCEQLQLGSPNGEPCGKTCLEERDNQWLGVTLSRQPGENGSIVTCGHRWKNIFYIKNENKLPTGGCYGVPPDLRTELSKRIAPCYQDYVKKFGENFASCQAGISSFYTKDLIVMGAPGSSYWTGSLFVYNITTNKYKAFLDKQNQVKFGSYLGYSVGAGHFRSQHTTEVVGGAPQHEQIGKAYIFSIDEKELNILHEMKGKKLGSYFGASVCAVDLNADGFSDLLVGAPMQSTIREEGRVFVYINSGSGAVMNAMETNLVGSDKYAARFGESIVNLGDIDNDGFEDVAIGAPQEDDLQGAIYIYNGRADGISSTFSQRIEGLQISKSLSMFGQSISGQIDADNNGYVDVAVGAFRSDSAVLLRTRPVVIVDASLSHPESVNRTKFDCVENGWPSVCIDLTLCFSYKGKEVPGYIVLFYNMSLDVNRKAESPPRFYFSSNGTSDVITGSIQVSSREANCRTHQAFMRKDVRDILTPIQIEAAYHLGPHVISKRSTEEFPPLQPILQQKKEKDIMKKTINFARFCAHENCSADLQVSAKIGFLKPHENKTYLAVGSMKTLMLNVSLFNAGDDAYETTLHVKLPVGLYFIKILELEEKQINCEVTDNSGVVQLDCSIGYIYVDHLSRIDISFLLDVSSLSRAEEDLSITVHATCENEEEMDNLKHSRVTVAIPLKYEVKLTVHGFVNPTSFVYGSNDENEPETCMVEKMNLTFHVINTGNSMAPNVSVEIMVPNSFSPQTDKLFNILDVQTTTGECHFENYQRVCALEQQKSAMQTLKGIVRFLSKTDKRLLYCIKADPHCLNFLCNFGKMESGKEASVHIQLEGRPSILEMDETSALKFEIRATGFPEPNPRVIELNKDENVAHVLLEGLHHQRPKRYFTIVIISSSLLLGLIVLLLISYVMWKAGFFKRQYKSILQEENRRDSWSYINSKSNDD
Sequence (P05556 21-798): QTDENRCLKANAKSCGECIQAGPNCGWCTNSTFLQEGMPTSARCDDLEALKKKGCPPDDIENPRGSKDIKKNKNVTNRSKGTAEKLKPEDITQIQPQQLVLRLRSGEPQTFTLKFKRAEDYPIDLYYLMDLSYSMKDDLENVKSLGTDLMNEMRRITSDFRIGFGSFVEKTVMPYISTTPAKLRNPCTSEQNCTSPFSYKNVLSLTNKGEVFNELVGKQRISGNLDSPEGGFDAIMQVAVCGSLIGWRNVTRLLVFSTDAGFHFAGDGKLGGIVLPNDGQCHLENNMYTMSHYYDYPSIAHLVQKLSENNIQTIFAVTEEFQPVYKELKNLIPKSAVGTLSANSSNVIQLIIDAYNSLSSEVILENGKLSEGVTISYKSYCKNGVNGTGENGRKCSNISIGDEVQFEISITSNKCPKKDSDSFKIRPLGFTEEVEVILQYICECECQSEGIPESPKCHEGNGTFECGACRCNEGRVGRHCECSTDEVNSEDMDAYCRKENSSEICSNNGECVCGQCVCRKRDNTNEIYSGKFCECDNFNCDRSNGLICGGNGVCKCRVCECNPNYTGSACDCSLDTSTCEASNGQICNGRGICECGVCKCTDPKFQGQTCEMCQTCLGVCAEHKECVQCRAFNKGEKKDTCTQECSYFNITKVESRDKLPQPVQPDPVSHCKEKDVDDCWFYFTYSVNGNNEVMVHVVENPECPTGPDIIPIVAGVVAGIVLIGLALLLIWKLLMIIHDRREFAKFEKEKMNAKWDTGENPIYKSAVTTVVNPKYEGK
experiment-description: VCAM antagonist activity (VCAM-1/α4β1 binding assay)
Type: cell-based
details: Jurkat cells binding to VCAM-1; read-out: VCAM antagonistic activity (IC50) α4β1
attribute-measured: IC50

Example results:
CCC(CC)(C(=O)N[C@@H](Cc1ccc(OCc2c(Cl)cccc2Cl)cc1)C(=O)O)C(=O)N1CC[C@@H](NC(C)=O)C1 [Example 54]: 20 to 100 nM
CCC(CC)(C(=O)N[C@@H](Cc1ccc(-n2c(=O)c3ccccc3n(CC=Cc3ccccc3)c2=O)cc1)C(=O)O)C(=O)N1CCCC1 [Example 101]: 100 to 2000 nM
CCC(CC)(C(=O)N[C@@H](Cc1ccc(NC(=O)c2nc(N3CCCCC3)ncc2Cl)cc1)C(=O)O)C(=O)N1CCCC1 [Example 482]: 100 to 2000 nM
CCC(CC)(C(=O)N[C@@H](Cc1ccc(OCc2c(Cl)cccc2Cl)cc1)C(=O)O)C(=O)N1CC[C@@H](F)C1 [Example 84]: 100 to 2000 nM
CC(C)(C(=O)N[C@@H](Cc1ccc(OCc2c(Cl)cccc2Cl)cc1)C(=O)O)C(=O)N1CCCC1 [Example 33]: 100 to 2000 nM

Kindly give each listed record's IC50.
1. CCC(CC)(C(=O)N[C@@H](Cc1ccc(OCc2c(Cl)cccc2Cl)cc1)C(=O)O)C(=O)N1CC[C@@H](NC)C1 [Example 64]
2. CCC(CC)(C(=O)N[C@@H](Cc1ccc(NC(=O)c2cc(Br)ccc2Br)cc1)C(=O)O)C(=O)N1CCCC1 [Example 98]

["100 to 2000 nM", "20 to 100 nM"]
